B1: tRNA (parent)
chain: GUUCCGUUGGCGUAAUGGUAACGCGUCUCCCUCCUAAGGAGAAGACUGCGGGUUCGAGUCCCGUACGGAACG

- Variants of: B1
- test name: yeast fitness relative to wild type (ratio to wild type); higher = fitter; tRNA-Arg(CCU), competitive growth, 37 C, YPD
Fewer inactive variants are shown than the library holds.
experimental endpoint: yeast fitness
In your answer, state the number alone without any accompanying words.

Given the variant A15G G23C G38C G52C G58A , what is its reported yeast fitness?
0.507

Requested read-out: yeast fitness. Entry: U3A C49G
0.792

What does the data say about its yeast fitness? Entry: A14C C46U G67C
0.589

yeast fitness lookup needed for U35C A43C , thanks.
0.927

So what does the record say about yeast fitness for C5G U19A A45C ?
0.779

Which value of yeast fitness has been reported for U8C C22G C49U U64C in the records?
0.679
